TARGET_DESC: H-NSctd T115A (Salmonella enterica serovar Typhimurium, UniProt P0A1S2 85-137, T115A)
TEST_DETAILS: NMR titration

{"BINDER": "3AT DNA (dsDNA) DNA 1: CGCATATATGCG DNA 2: CGCATATATGCG", "Kd": "4.1 µM"}
